System: MDA-MB-468 breast
Assay: NCI-60 one-dose screen, 48 h
Settings: 10 µM unless noted
This is part of a sample that, as a whole, favours compounds with a hit. Of some 83,000 tested, about 20% had one in any assay. Active and inactive are the calls of the source. Rule for the calls: active = growth percent below 10; inactive = the rest.
Valid outcomes are listed here; reply with one: active, inactive

What did this assay record as the result for CC(=O)NC(C)(C)C(=O)N1CCC[C@H]1C(=O)NC(C)(C)C(=O)N[C@@H](C)C(=O)NC(C)(C)C(=O)NC(C)(C)C(=O)N[C@@H](CCC(N)=O)C(=O)NC(C)(C)C(=O)N[C@H](C(=O)NC(C)(C)C(=O)NCC(=O)N[C@@H](CC(C)C)C(=O)NC(C)(C)C(=O)N1CCC[C@H]1C(=O)N[C@H](C(=O)NC(C)(C)C(=O)NC(C)(C)C(=O)N[C@@H](CCC(N)=O)C(=O)N[C@@H](CCC(N)=O)C(=O)N[C@H](CO)Cc1ccccc1)C(C)C)C(C)C ?
active

What did this assay record as the result for COc1cc(-c2nc3ccccc3[nH]2)ccc1OCC(=O)N=Nc1c(O)[nH]c2ccc(Cl)cc12 ?
active

What did this assay record as the result for C(=C1c2ccccc2-c2ccccc21)c1ccncc1 ?
active

What did this assay record as the result for Cc1ccc(-c2nc3nc(-c4ccc(Br)cc4)nc(N4CCCNCC4)c3o2)cc1 ?
active

What did this assay record as the result for COc1cc(C2CC(c3ccc4c(c3)OCO4)=NN2c2ccccc2)cc(OC)c1OC (stereo not given) ?
inactive

What did this assay record as the result for O=C1CC(c2cccc(F)c2)c2c(n[nH]c2-c2ccc(Cl)cc2)N1 (stereo not given) ?
inactive

What did this assay record as the result for CCOC(=O)c1ccc2[nH]c(O)c(C(=Nc3ccc(N(C)C(=O)CN4CCN(C)CC4)cc3)c3ccccc3)c2c1 ?
active

====

Tested on: MDA-MB-468 breast
Test: NCI-60 one-dose screen, 48 h
Settings: 10 µM unless noted
The panel holds about 83,000 compounds, 20% with a hit somewhere; the sample as a whole holds those more often. The source made the active and inactive calls. How the source made its calls: active means growth percent below 10; inactive means the rest.
Valid outcomes are listed here; reply with one: active, inactive

Below, 3 compounds whose answers are already recorded.
1) Oc1ccc2cc(Br)ccc2c1-c1c(O)ccc2cc(Br)ccc12 | inactive
2) COC(=O)CCC/C=C\C[C@H]1C=CC(=O)/C1=C/C[C@@H](O)CCc1cccc(C(F)(F)F)c1 | active
3) CC1(O)CCC(Nc2cc(-c3ccc(C(F)(F)F)cc3)c(C#N)c3nc4ccccc4n23)CC1 (centres undefined) | inactive

What did this assay record as the result for C=C1c2c(C)nn(-c3ccc(S(N)(=O)=O)cc3)c2N(C)C23CC1C1(C)c4c(C)nn(-c5ccc(S(N)(=O)=O)cc5)c4N(C)C(C)(CC12)C3 (centres undefined) ?
active

What did this assay record as the result for COc1cc(Cn2c(-c3ccccc3)cc3c2-c2oncc2CC3)cc(OC)c1OC ?
active

What did this assay record as the result for O=C1NC(=S)NC(=O)C1=Cc1cn(Cc2cn(Cc3cccc4ccccc34)nn2)c2ccccc12 ?
inactive

====

System: MDA-MB-468 breast
Assay: NCI-60 one-dose screen, 48 h
Conditions: 10 µM unless noted
Compounds without any hit were thinned out: in the full panel of roughly 83,000, 20% have a hit. The source made the active and inactive calls. How the source made its calls: active means growth percent below 10; inactive means the rest.
Valid outcomes are listed here; reply with one: Yes for active, No for inactive

What did this assay record as the result for O=C(NNC(=O)c1ccc([N+](=O)[O-])cc1)c1ccc([N+](=O)[O-])cc1 ?
No

What did this assay record as the result for Oc1ccc(N=Cc2ccc(OCc3ccccc3)cc2)cc1 ?
No

What did this assay record as the result for COc1ccc(-c2cn3c(-c4ccc(OC)cc4)cnc3c(Oc3ccc4c(C)cc(=O)oc4c3)n2)cc1 ?
No

What did this assay record as the result for Cc1cc2cc3ccc(N(C)C)cc3nc2cc1N ?
Yes

What did this assay record as the result for Oc1ccc(-c2nnc(SCc3ccc(O)c4ncccc34)n2-c2ccccc2)cc1 ?
Yes

Source of measurements: PubChem BioAssay (NCI)
